target: UniProt P33535
Sequence (P33535 whole entry): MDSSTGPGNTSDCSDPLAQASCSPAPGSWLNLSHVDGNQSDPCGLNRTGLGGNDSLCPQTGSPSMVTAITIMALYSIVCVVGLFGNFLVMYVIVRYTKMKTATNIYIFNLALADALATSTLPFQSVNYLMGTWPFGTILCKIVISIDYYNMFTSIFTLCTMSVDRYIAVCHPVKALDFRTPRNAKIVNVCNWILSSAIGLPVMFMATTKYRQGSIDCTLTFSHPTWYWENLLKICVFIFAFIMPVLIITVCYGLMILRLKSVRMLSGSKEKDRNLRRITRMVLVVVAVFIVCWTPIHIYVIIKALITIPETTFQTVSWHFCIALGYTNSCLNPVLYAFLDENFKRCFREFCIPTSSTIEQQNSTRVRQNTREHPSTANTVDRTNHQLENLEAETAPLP
assay-endpoint: pKi
Give bare numbers, as −log10 of the molar value.

Enquiry: Please give the measured pKi for this compound: C=C[C@@H](O)C#CC#C[C@@H](O)/C=C\CCCCCCC
Return: 5.95

###

target: D(1A) dopamine receptor (Rattus norvegicus, UniProt P18901); test: Displacement of [3H]SCH-23390 from rat HA-tagged D1 dopamine receptor expressed in CHO cells
Sequence (P18901 whole entry): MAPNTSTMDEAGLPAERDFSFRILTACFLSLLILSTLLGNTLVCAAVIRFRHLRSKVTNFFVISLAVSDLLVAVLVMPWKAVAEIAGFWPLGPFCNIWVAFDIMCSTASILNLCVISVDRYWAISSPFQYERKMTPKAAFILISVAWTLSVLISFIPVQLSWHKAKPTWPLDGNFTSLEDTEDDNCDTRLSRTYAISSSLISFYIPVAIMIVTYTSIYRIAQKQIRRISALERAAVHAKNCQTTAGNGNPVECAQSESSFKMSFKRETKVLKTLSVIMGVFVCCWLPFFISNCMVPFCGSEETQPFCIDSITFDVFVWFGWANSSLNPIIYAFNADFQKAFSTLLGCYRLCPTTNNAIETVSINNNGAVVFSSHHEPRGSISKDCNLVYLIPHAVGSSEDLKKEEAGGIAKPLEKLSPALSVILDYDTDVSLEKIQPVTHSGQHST
So I've got a bunch of molecules here, and I need their Ki values.
One number for each entry, in nM.

For each of the molecules below, state Ki.
1. CC(C)=CC(O)C/C(C)=C/COc1c2ccoc2cc2oc(=O)ccc12 (stereo not drawn) [NOTOPTEROL]
2. C=C[C@@H](O)C#CC#C[C@@H](O)/C=C\CCCCCCC [FALCARINDIOL]

Return:
[1420, 192]

Origin of measurements: ChEMBL document CHEMBL1143918
